experiment-description: Kinetics of the coupling reaction of iminosydnones with BCN (HPLC monitoring)
Type: physicochemical
condition: 100 μM iminosydnone, 150 μM BCN, PBS 0.1M (pH 7.4) containing 10% DMSO
Threshold rule: K (BCN) greater than or equal to 0.06 M⁻¹ s⁻¹ is Fulfilled; below that, Not fulfilled.

Check out these entries, answers already filled in.
smi=N#CC#Cc1ccc(NC(=O)[N-]c2c[n+](-c3ccc(C(=O)O)cc3)no2)cc1 class_label=Fulfilled
smi=Cc1ccc(NC(=O)[N-]c2c[n+](-c3ccc(C(=O)O)cc3)no2)cc1 class_label=Fulfilled
smi=Cc1ccc(-[n+]2cc([N-]C(=O)CCc3ccccc3)on2)cc1 class_label="Not fulfilled"
smi=CC(=O)[N-]c1c[n+](-c2ccccc2)no1 class_label="Not fulfilled"
smi=Cc1ccc(-[n+]2cc([N-]C(=O)Cc3ccccc3)on2)cc1 class_label="Not fulfilled"
smi=Cc1ccc(-[n+]2noc([N-]C(=O)OCc3ccccc3)c2Br)cc1 class_label=Fulfilled

Query: Record "CCOC(=O)c1ccc(NC(=O)[N-]c2c[n+](-c3ccc(O)cc3)no2)cc1" ; criterion: K (BCN) no lower than 0.06 M⁻¹ s⁻¹. Met?
Result: Not fulfilled

Query: Record "Cc1ccc(-[n+]2cc([N-]C(=O)OCc3ccccc3)on2)cc1" ; criterion: K (BCN) no lower than 0.06 M⁻¹ s⁻¹. Met?
Result: Not fulfilled

Query: Record "Cc1ccc(-[n+]2cc([N-]C(=O)NCc3ccccc3)on2)cc1" ; criterion: K (BCN) no lower than 0.06 M⁻¹ s⁻¹. Met?
Result: Not fulfilled

Query: Record "Cc1ccc(NC(=O)[N-]c2c[n+](-c3ccccc3)no2)cc1" ; criterion: K (BCN) no lower than 0.06 M⁻¹ s⁻¹. Met?
Result: Fulfilled

Query: Record "Cc1ccc(NC(=O)[N-]c2c[n+](-c3ccc(O)cc3)no2)cc1" ; criterion: K (BCN) no lower than 0.06 M⁻¹ s⁻¹. Met?
Result: Not fulfilled
